# procedure_text: Effective dose for generalization to 10 mg/kg cocaine in rat (value is standard error of the population of 88 independent determinations)
# Type: functional
measured_property: ED50 (mg/kg)

>  <compound>
CCCN[C@@H]1C[C@@H](c2ccc(Cl)c(Cl)c2)c2ccccc21 (relative stereo)

>  <display_unit>
mg/kg

>  <reported_result>
2.3

$$$$
>  <compound>
COC(=O)[C@H]1[C@@H](OC(=O)c2ccccc2)C[C@@H]2CC[C@H]1N2C

>  <display_unit>
mg/kg

>  <reported_result>
3.61

$$$$
>  <compound>
CN(C)[C@@H]1C[C@@H](c2ccc(Cl)c(Cl)c2)c2ccccc21.O=C(O)/C=C\C(=O)O (relative stereo)

>  <display_unit>
mg/kg

>  <reported_result>
1.3

$$$$
>  <compound>
CCCN(C)[C@@H]1C[C@@H](c2ccc(Cl)c(Cl)c2)c2ccccc21 (relative stereo)

>  <display_unit>
mg/kg

>  <reported_result>
1.5

$$$$
>  <compound>
CC(C)N(C)[C@@H]1C[C@@H](c2ccc(Cl)c(Cl)c2)c2ccccc21

>  <display_unit>
mg/kg

>  <reported_result>
3.3

$$$$

====

# system_under_test: Sodium-dependent serotonin transporter (Homo sapiens, UniProt P31645)
# Sequence (P31645 whole entry, looked up): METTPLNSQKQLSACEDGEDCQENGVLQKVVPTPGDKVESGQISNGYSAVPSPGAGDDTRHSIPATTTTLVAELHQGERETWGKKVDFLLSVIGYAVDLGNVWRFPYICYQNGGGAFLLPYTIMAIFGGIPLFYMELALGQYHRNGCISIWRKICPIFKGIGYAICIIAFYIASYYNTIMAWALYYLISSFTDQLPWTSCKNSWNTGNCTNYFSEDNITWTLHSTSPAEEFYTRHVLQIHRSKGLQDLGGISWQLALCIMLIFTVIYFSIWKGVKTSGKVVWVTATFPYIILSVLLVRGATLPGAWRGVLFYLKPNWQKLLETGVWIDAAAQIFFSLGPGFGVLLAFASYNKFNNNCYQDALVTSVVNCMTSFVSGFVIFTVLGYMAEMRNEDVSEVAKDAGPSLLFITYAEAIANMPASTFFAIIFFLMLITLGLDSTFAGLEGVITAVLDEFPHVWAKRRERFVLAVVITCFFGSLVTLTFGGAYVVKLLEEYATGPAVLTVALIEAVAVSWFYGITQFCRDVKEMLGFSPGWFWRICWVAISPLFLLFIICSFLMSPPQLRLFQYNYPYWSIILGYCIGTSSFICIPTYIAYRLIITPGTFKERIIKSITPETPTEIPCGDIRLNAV
# procedure_text: Ratio of serotonin uptake to serotonin binding
Catalogue of Ratio readings, one per entry.
measured_property: Ratio

>  <molecule>
CCCN[C@@H]1C[C@@H](c2ccc(Cl)c(Cl)c2)c2ccccc21 (relative stereo)

>  <reported_result>
3.7

$$$$
>  <molecule>
CCCN[C@H]1C[C@@H](c2ccc(Cl)c(Cl)c2)c2ccccc21 (relative stereo)

>  <reported_result>
2.6

$$$$
>  <molecule>
CC(C)(C)N[C@@H]1C[C@@H](c2ccc(Cl)c(Cl)c2)c2ccccc21 (relative stereo)

>  <reported_result>
4.2

$$$$
>  <molecule>
CCN[C@@H]1C[C@@H](c2ccc(Cl)c(Cl)c2)c2ccccc21 (relative stereo)

>  <reported_result>
6.5

$$$$
>  <molecule>
CCN(C)[C@@H]1C[C@@H](c2ccc(Cl)c(Cl)c2)c2ccccc21 (relative stereo)

>  <reported_result>
1.5

$$$$
>  <molecule>
CN(C)[C@@H]1C[C@@H](c2ccc(Cl)c(Cl)c2)c2ccccc21 (stereo in doubt; (+))

>  <reported_result>
110

$$$$
>  <molecule>
CCN[C@H]1C[C@@H](c2ccc(Cl)c(Cl)c2)c2ccccc21

>  <reported_result>
4

$$$$
>  <molecule>
CC(C)N[C@@H]1C[C@@H](c2ccc(Cl)c(Cl)c2)c2ccccc21

>  <reported_result>
2.6

$$$$
>  <molecule>
CN(C)[C@@H]1C[C@@H](c2ccc(Cl)c(Cl)c2)c2ccccc21 (relative stereo)

>  <reported_result>
200

$$$$
>  <molecule>
CCN(C)[C@H]1C[C@@H](c2ccc(Cl)c(Cl)c2)c2ccccc21 (relative stereo)

>  <reported_result>
5.5

$$$$

====

# system_under_test: Sodium-dependent dopamine transporter (Homo sapiens, UniProt Q01959)
# Sequence (Q01959 whole entry): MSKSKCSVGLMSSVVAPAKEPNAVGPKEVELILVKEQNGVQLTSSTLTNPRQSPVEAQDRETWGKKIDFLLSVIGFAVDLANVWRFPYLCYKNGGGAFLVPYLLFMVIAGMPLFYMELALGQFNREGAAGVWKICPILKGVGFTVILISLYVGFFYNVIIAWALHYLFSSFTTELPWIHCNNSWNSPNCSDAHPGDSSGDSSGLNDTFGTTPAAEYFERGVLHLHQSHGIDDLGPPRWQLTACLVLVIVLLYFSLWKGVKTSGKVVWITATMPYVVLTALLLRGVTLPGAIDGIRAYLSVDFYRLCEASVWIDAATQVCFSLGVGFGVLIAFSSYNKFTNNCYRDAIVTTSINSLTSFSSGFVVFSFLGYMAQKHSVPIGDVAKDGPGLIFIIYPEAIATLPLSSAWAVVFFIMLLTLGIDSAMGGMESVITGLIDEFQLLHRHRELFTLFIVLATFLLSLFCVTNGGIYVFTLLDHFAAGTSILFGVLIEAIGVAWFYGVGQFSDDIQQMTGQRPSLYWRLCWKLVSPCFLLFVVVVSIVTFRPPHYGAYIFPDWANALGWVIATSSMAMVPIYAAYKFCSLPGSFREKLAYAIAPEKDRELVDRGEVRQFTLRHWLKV
# procedure_text: Ratio of dopamine uptake to dopamine binding
Catalogue of Ratio readings, one per entry.

>  <compound>
CN(C)[C@@H]1C[C@@H](c2ccc(Cl)c(Cl)c2)c2ccccc21 (relative stereo)

>  <Ratio>
11

$$$$
>  <compound>
CN(Cc1ccccc1)[C@@H]1C[C@@H](c2ccc(Cl)c(Cl)c2)c2ccccc21 (relative stereo)

>  <Ratio>
4.6

$$$$
>  <compound>
CCCN(C)[C@@H]1C[C@@H](c2ccc(Cl)c(Cl)c2)c2ccccc21 (relative stereo)

>  <Ratio>
1.4

$$$$
